Data provenance is patent US20090042785A1.

molecular target: T1, human CTLA-4-Fc (Chimerigen) (human, UniProt P16410 36-161; P01857 99-330 = IgG part, limits assumed); assay: SPR as in Example 9
T1 construct: extracellular domain;domain: Fc portion; Bought protein; also called hCTLA-4-Fc; huCTLA-4-Ig
T1 sequence (P16410 other isoform, or with tags, fused parts or gaps mutant limits assumed): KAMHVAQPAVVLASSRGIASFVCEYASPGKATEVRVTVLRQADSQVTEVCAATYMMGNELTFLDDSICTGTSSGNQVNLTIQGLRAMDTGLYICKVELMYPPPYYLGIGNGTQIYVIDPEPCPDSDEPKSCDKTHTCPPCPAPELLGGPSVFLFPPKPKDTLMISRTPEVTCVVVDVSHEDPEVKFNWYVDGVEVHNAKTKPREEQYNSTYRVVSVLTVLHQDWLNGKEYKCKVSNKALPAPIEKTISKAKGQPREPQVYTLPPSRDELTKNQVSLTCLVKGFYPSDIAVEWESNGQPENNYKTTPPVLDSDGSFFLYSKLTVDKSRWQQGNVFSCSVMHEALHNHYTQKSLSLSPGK
Reported kon values for a set of binders
recorded_metric: kon (M⁻¹ s⁻¹)

1. hNGAL mutein S140.4-B16 (designed binder, tagged entry not tied to the name; not shown: N-terminal T7 detection tag from vector phNGAL37; C-terminal Strep-tag II from vector phNGAL37) QDSTSDLIPAPPLSKVPLQQNFQDNQFHGKWYVVGLAGNRILRDDQHPMNMYATIYELKEDKSYNVTSVIFPHKKCEYTIATFVPGSQPGEFTLSDIKSYGDKTSYLVRVVSTDYNQYAVVFFKLAEDNAEFFAITIYGRTKELASELKENFIRFSKSLGLPENHIVFPVPIDQCIDG | 6160
2. hNGAL mutein S140.4-O10 (designed binder, also called Onc I-002) QDSTSDLIPAPPLSKVPLQQNFQDNQFHGKWYVVGLAGNRILRDDQHPMNMYATIYELKEDKSYNVTSVISSHKKCEYTIATFVPGSQPGEFTLGNIKSYGDKTSYLVRVVSTDYNQYAVVFFKLAEDNAEFFAITIYGRTKELASELKENFIRFSKSLGLPENHIVFPVPIDQCIDG | 15300
3. hNGAL mutein S140.1-F09 (designed binder, tagged entry not tied to the name; not shown: N-terminal T7 detection tag from vector phNGAL37; C-terminal Strep-tag II from vector phNGAL37) QDSTSDLIPAPPLSKVPLQQNFQDNQFHGKWYVVGLAGNRILRDDQHPMNMYATIYELKEDKSYNVTSVISSHKKCEYTIATFVPGSQPGEFTLGNIKSYGDKTSYLVRVVSTNYNQYAVVFFKLAEDNAEFFAITIYGRTKELASELKENFIRFSKSLGLPENHIVFPVPIDQCIDG | 11800
4. hNGAL mutein F92.1-J08 (designed binder, also called CTLA-4-J08) QDSTSDLIPAPPLSKVPLQQNFQDNQFHGKWYVVGLAGNRILRDDQHPMNMYATIYELKEDKSYNVTSVIFPHKKCEYTIATFVPGSQPGEFTLGNIKSYGDKTSYLVRVVSTNYNQYAVVFFKLAEDNAEFFAITIYGRTKELASELKENFIRFSKSLGLPENHIVFPVPIDQCIDGSAWSHPQF | 9240
